system: 454973-116-R2-J3-PDC complex spheroid viability; assay: Anticancer human tumor 454973-116-R2-J3-PDC patient-derived pancreatic carcinoma cell line growth inhibition [POLQ]; conditions: second compound 10 µM; first compound 0.1 µM; active compounds read low
I'd be grateful if you could share measured viability, T/C for these entries.

Record excerpt, results attached:
Tell me viability, T/C reported for O=c1[nH]cc(F)c(=O)[nH]1 + Nc1ccc(C#CCN(C(=O)Cc2ncc(C(F)(F)F)cc2C(F)(F)F)c2ccc(F)cc2)nn1
118%

Read the entry C=CC(=O)N1CCN(c2nc(=O)n(-c3c(C)ccnc3C(C)C)c3nc(-c4c(O)cccc4F)c(F)cc23)C(C)C1 (stereo not given) + COC1C(OC(N)=O)C(O)C(Oc2ccc3c(O)c(NC(=O)c4ccc(O)c(CC=C(C)C)c4)c(=O)oc3c2C)OC1(C)C and write its reported viability, T/C.
104%

Respond only with viability, T/C recorded for CC(C)n1c(=O)n(C)c2cnc3cc(F)c(-c4ccc(OCCCN5CCCCC5)nc4)cc3c21 + Cc1cccc(N(C)C(=O)C2C(O)CCN2c2nc(C)cc(C(F)(F)F)c2C#N)c1
110%

Name the recorded viability, T/C of the compound listed here: COc1cccc(OCCCN)c1-c1cc(Nc2cnc(C#N)cn2)n[nH]1 + Nc1ccc(C#CCN(C(=O)Cc2ncc(C(F)(F)F)cc2C(F)(F)F)c2ccc(F)cc2)nn1
5.59%

Now for the compound whose viability, T/C we want.
Specify measured viability, T/C for CC1COCCN1c1cc(C2(S(C)(=N)=O)CC2)nc(-c2ccnc3[nH]ccc23)n1 (stereo not given) + COC1C(OC(N)=O)C(O)C(Oc2ccc3c(O)c(NC(=O)c4ccc(O)c(CC=C(C)C)c4)c(=O)oc3c2C)OC1(C)C .
97%

----------
Test system: 454973-116-R2-J3-PDC complex spheroid viability
Assay: Anticancer human tumor 454973-116-R2-J3-PDC cell line growth inhibition [POLQ];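 also: spheroids exposed to drugs for seven days before measurement; percent viability relative to DMSO vehicle control wells taken as 100%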
Conditions: second compound 0.1 µM; first compound 0.1 µM; active compounds read low
Description: Multicellular complex tumor spheroid response to Polymerase (POL) inhibitors (novobiocin, ART-558, RP6685) in combination with a variety of drugs and investigational agents in selected tumor cell lines The POL inhibitors (novobiocin, ART-558, and RP6685) were evaluated both individually and in combination with standard of care and investigational anticancer small molecules within a complex spheroid model of solid tumors. . […]
For each of the molecules below, state its viability, T/C.
Give bare numbers, in %.

Worked examples, 4 molecules total:
Please give the documented viability, T/C of CNCc1ccc(-c2[nH]c3cc(F)cc4c3c2CCNC4=O)cc1 + COC1C(OC(N)=O)C(O)C(Oc2ccc3c(O)c(NC(=O)c4ccc(O)c(CC=C(C)C)c4)c(=O)oc3c2C)OC1(C)C
103

For the molecule CC1COCCN1c1cc(C2(S(C)(=N)=O)CC2)nc(-c2ccnc3[nH]ccc23)n1 (stereo not given) + Nc1ccc(C#CCN(C(=O)Cc2ncc(C(F)(F)F)cc2C(F)(F)F)c2ccc(F)cc2)nn1 , give its reported viability, T/C.
109

Kindly indicate its recorded viability, T/C. Item: O=c1[nH]cc(F)c(=O)[nH]1 + Cc1cccc(N(C)C(=O)C2C(O)CCN2c2nc(C)cc(C(F)(F)F)c2C#N)c1
108

State, in one line, measured viability, T/C of C#Cc1c(F)ccc2cc(O)cc(-c3ncc4c(N5CC6CCC(C5)N6)nc(OCC56CCCN5CC(F)C6)nc4c3F)c12 (stereo not given) + Cc1cccc(N(C)C(=O)C2C(O)CCN2c2nc(C)cc(C(F)(F)F)c2C#N)c1
43.8

Please look at the following molecule next.
Report measured viability, T/C; entry is CC1COCCN1c1cc(C2(O)CC3CCC(C2)O3)c2cnn(-c3ccn[nH]3)c2n1 (stereo not given) + COC1C(OC(N)=O)C(O)C(Oc2ccc3c(O)c(NC(=O)c4ccc(O)c(CC=C(C)C)c4)c(=O)oc3c2C)OC1(C)C
76.9

----------
test system: 454973-116-R2-J3-PDC complex spheroid viability; test: Anticancer human tumor 454973-116-R2-J3-PDC cell line growth inhibition [POLQ]; conditions: second compound 3.16 µM; first compound 3.16 µM; active compounds read low;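 also: spheroids exposed to drugs for seven days before measurement; percent viability relative to DMSO vehicle control wells taken as 100%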
MEASURED_METRIC: viability, T/C

Please review the following examples before continuing.
Supply viability, T/C value. Item: O=C(c1cc(Cc2n[nH]c(=O)c3ccccc23)ccc1F)N1CCN(C(=O)C2CC2)CC1 + Nc1ccc(C#CCN(C(=O)Cc2ncc(C(F)(F)F)cc2C(F)(F)F)c2ccc(F)cc2)nn1
101%

Read the entry O=C(c1cc(Cc2n[nH]c(=O)c3ccccc23)ccc1F)N1CCN(C(=O)C2CC2)CC1 + Cc1cccc(N(C)C(=O)C2C(O)CCN2c2nc(C)cc(C(F)(F)F)c2C#N)c1 and write its reported viability, T/C.
96.3%

Name the recorded viability, T/C of the item Nc1ccn(C2OC(CO)C(O)C2(F)F)c(=O)n1 (stereo not given) + COC1C(OC(N)=O)C(O)C(Oc2ccc3c(O)c(NC(=O)c4ccc(O)c(CC=C(C)C)c4)c(=O)oc3c2C)OC1(C)C in your answer.
11%

Please supply viability, T/C for each of the following items, keeping them in order.
1. C=CC(=O)N1CCN(c2nc(=O)n(-c3c(C)ccnc3C(C)C)c3nc(-c4c(O)cccc4F)c(F)cc23)C(C)C1 (stereo not given) + Nc1ccc(C#CCN(C(=O)Cc2ncc(C(F)(F)F)cc2C(F)(F)F)c2ccc(F)cc2)nn1
2. COc1cc2cc(C(=O)CCC(=O)O)sc2cc1OC + Nc1ccc(C#CCN(C(=O)Cc2ncc(C(F)(F)F)cc2C(F)(F)F)c2ccc(F)cc2)nn1
3. CC(C)n1c(=O)n(C)c2cnc3cc(F)c(-c4ccc(OCCCN5CCCCC5)nc4)cc3c21 + COC1C(OC(N)=O)C(O)C(Oc2ccc3c(O)c(NC(=O)c4ccc(O)c(CC=C(C)C)c4)c(=O)oc3c2C)OC1(C)C

1. 125%
2. 116%
3. 106%

----------
System: 454973-116-R2-J3-PDC complex spheroid viability
Assay: Anticancer human tumor 454973-116-R2-J3-PDC cell line growth inhibition [POLQ];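 also: spheroids exposed to drugs for seven days before measurement; percent viability relative to DMSO vehicle control wells taken as 100%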
Conditions: second compound 0.1 µM; first compound 0.0316 µM; active compounds read low
Protocol: Multicellular complex tumor spheroid response to Polymerase (POL) inhibitors (novobiocin, ART-558, RP6685) in combination with a variety of drugs and investigational agents in selected tumor cell lines The POL inhibitors (novobiocin, ART-558, and RP6685) were evaluated both individually and in combination with standard of care and investigational anticancer small molecules within a complex spheroid model of solid tumors. . […]
Threshold 90%: viability, T/C strictly smaller gives 1, otherwise 0.

Consider Nc1ccn(C2OC(CO)C(O)C2(F)F)c(=O)n1 (stereo not given) + COC1C(OC(N)=O)C(O)C(Oc2ccc3c(O)c(NC(=O)c4ccc(O)c(CC=C(C)C)c4)c(=O)oc3c2C)OC1(C)C . Does its viability, T/C lie strictly below 90%?
1

Is 90% strictly greater than the compound's reported viability, T/C? compound: COc1cccc2c1C(=O)c1c(O)c3c(c(O)c1C2=O)CC(O)(C(=O)CO)CC3OC1CC(N)C(O)C(C)O1 (stereo not given) + Cc1cccc(N(C)C(=O)C2C(O)CCN2c2nc(C)cc(C(F)(F)F)c2C#N)c1
1

Hi there! Is viability, T/C for O=C(c1cc(Cc2n[nH]c(=O)c3ccccc23)ccc1F)N1CCN(C(=O)C2CC2)CC1 + Cc1cccc(N(C)C(=O)C2C(O)CCN2c2nc(C)cc(C(F)(F)F)c2C#N)c1 below 90%, do you know?
0

is_below(viability, T/C, 90%) for COc1ccc([C@@H](O)c2cc(-c3ncnc4cc(N5CCOCC5)ccc34)c(F)cc2Cl)nn1 + COC1C(OC(N)=O)C(O)C(Oc2ccc3c(O)c(NC(=O)c4ccc(O)c(CC=C(C)C)c4)c(=O)oc3c2C)OC1(C)C ?
0

Problem: For the compound CNCc1ccc(-c2[nH]c3cc(F)cc4c3c2CCNC4=O)cc1 + Nc1ccc(C#CCN(C(=O)Cc2ncc(C(F)(F)F)cc2C(F)(F)F)c2ccc(F)cc2)nn1 , is viability, T/C under 90%?
0

----------
tested on: 454973-116-R2-J3-PDC complex spheroid viability; assay: Anticancer human tumor 454973-116-R2-J3-PDC cell line growth inhibition [POLQ]; conditions: second compound 10 µM; first compound 1 µM; active compounds read low;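 also: spheroids exposed to drugs for seven days before measurement; percent viability relative to DMSO vehicle control wells taken as 100%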
I'd appreciate it if you could supply viability, T/C values for the items below.
Answers are plain numbers, in %.

Please give measured viability, T/C of the following entry: C#Cc1c(F)ccc2cc(O)cc(-c3ncc4c(N5CC6CCC(C5)N6)nc(OCC56CCCN5CC(F)C6)nc4c3F)c12 (stereo not drawn) + COC1C(OC(N)=O)C(O)C(Oc2ccc3c(O)c(NC(=O)c4ccc(O)c(CC=C(C)C)c4)c(=O)oc3c2C)OC1(C)C
30.1

State its viability, T/C: CC1COCCN1c1cc(C2(S(C)(=N)=O)CC2)nc(-c2ccnc3[nH]ccc23)n1 (stereo not drawn) + Cc1cccc(N(C)C(=O)C2C(O)CCN2c2nc(C)cc(C(F)(F)F)c2C#N)c1
102

---
Check the records and state viability, T/C for COc1cc2cc(C(=O)CCC(=O)O)sc2cc1OC + COC1C(OC(N)=O)C(O)C(Oc2ccc3c(O)c(NC(=O)c4ccc(O)c(CC=C(C)C)c4)c(=O)oc3c2C)OC1(C)C
100
